Tgt: T1, rGyr_hel K106Q (Thermotoga maritima, UniProt O51934 59-541, K106Q)
T1 sequence: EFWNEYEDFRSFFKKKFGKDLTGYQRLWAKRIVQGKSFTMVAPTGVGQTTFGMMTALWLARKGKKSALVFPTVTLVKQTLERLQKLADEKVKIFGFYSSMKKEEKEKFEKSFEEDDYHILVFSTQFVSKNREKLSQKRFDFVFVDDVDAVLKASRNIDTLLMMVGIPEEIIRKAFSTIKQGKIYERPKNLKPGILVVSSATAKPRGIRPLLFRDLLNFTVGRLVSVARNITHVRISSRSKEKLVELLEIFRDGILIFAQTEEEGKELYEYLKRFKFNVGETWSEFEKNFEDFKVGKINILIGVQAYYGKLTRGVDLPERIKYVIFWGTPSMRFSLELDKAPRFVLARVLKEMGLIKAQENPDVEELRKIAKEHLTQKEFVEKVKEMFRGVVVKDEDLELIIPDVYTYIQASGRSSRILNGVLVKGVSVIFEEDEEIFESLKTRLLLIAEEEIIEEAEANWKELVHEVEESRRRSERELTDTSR
Assay overview: fluorescence anisotropy
Experimental readout: Kd (nM)
Numbers only, in nM.

Q: For 60-base ssDNA (ssDNA) DNA: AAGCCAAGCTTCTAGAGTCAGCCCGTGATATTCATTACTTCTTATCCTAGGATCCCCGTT , write its Kd.
Result: 200
